type: physicochemical, mice; conditions: stability in mice plasma/blood QC sample, spiked concentration 0.488
Rule: Accuracy (RE, %) 25°C for 6 h of 10% or more gives true; anything lower gives false.

[[record]]
compound = "CC(C)=CCC[C@](C)(O[C@@H]1O[C@H](CO)[C@@H](O)[C@H](O)[C@H]1O)[C@H]1CC[C@]2(C)[C@@H]1[C@H](O)C[C@@H]1[C@@]3(C)CC[C@H](O)C(C)(C)[C@@H]3[C@@H](O[C@@H]3O[C@H](CO)[C@@H](O)[C@H](O)[C@H]3O)C[C@]12C [Rg1, ginsenoside Rg1]"
class_assignment = "true"

[[record]]
compound = "CC(C)=CCC[C@](C)(O[C@@H]1O[C@H](CO)[C@@H](O)[C@H](O)[C@H]1O)[C@H]1CC[C@]2(C)[C@@H]1[C@H](O)C[C@@H]1[C@@]3(C)CC[C@H](O[C@@H]4O[C@H](CO)[C@@H](O)[C@H](O)[C@H]4O[C@@H]4O[C@H](CO)[C@@H](O)[C@H](O)[C@H]4O)C(C)(C)[C@@H]3CC[C@]12C [Rd, Ginsenoside Rd]"
class_assignment = "true"

[[record]]
compound = "CC(C)=CCC[C@](C)(O)[C@H]1CC[C@]2(C)[C@@H]1[C@H](O)C[C@@H]1[C@@]3(C)CC[C@H](O[C@@H]4O[C@H](CO)[C@@H](O)[C@H](O)[C@H]4O[C@@H]4O[C@H](CO)[C@@H](O)[C@H](O)[C@H]4O)C(C)(C)[C@@H]3CC[C@]12C [Rg3, ginsenoside Rg3]"
class_assignment = "false"

[[record]]
compound = "COc1c(O[C@@H]2O[C@H](C(=O)O)[C@@H](O)[C@H](O)[C@H]2O)cc(O)c2c(=O)cc(-c3ccccc3)oc12 [Wogonoside, wogonoside]"
class_assignment = "true"

[[record]]
compound = "O=C1C[C@@H](c2ccc(O[C@@H]3O[C@H](CO)[C@@H](O)[C@H](O)[C@H]3O)cc2)Oc2cc(O)ccc21 [Liquiritin]"
class_assignment = "false"

